System: CCRIS mutagenicity, Ames/micronucleus/aberration tests
Assay: CCRIS mutagenicity studies
Conditions: Test System: AMES SALMONELLA TYPHIMURIUM; Strain/Indicator: TA1535; Metabolic Activation: RAT, LIVER, S-9, AROCLOR 1254 (10%); Method: PREINCUBATION
The source made the active and inactive calls. No rule for the calls is given here.
Labels: active, inactive

[[record]]
compound = "CC(N)Cc1ccccc1 (centres undefined)"
assigned_label = "inactive"

[[record]]
compound = "O=C1c2ccccc2-c2ccc3c4c(ccc1c24)-c1ccccc1C3=O"
assigned_label = "inactive"

[[record]]
compound = "O=S1OCC2C(CO1)C1(Cl)C(Cl)=C(Cl)C2(Cl)C1(Cl)Cl (centres undefined)"
assigned_label = "inactive"

[[record]]
compound = "C=C1C/C(=C/C)C(=O)O[C@@H]2CCN3CC=C(COC(=O)[C@]1(C)O)[C@H]23"
assigned_label = "inactive"

[[record]]
compound = "ClCC1CO1 (centres undefined)"
assigned_label = "active"

[[record]]
compound = "OCCCCl"
assigned_label = "active"

[[record]]
compound = "CN1CCC(CN2c3ccccc3Sc3ccccc32)C1 (centres undefined)"
assigned_label = "inactive"

[[record]]
compound = "Nc1ccccc1C(=O)OC1CCCCC1"
assigned_label = "inactive"

[[record]]
compound = "COc1ccc(C=O)cc1OC"
assigned_label = "inactive"

[[record]]
compound = "O=P(OC(CCl)CCl)(OC(CCl)CCl)OC(CCl)CCl"
assigned_label = "active"

[[record]]
compound = "CC(C)CCC[C@@H](C)[C@H]1CC[C@H]2[C@@H]3CC=C4C[C@@H](OC(=O)Cc5ccc(N(CCCl)CCCl)cc5)CC[C@]4(C)[C@H]3CC[C@]12C"
assigned_label = "inactive"

[[record]]
compound = "CN(C)CCC(c1ccccc1)c1ccccn1 (centres undefined)"
assigned_label = "inactive"

[[record]]
compound = "Nc1ccccc1C(=O)OC/C=C/c1ccccc1"
assigned_label = "inactive"

[[record]]
compound = "Nc1ccc([N+](=O)[O-])c(N)c1"
assigned_label = "inactive"

[[record]]
compound = "C[C@H](CCC(=O)O)[C@H]1CC[C@H]2[C@@H]3CC[C@@H]4C[C@H](O)CC[C@]4(C)[C@H]3CC[C@]12C"
assigned_label = "inactive"

[[record]]
compound = "CC1CC(OC(=O)c2ccccc2O)CC(C)(C)C1 (centres undefined)"
assigned_label = "inactive"

[[record]]
compound = "Cc1cc(-c2cc(C)c(N)c(C)c2)cc(C)c1N"
assigned_label = "inactive"

[[record]]
compound = "Nc1ccc(Cl)cc1N"
assigned_label = "inactive"

[[record]]
compound = "O=C1CCCO1"
assigned_label = "inactive"

[[record]]
compound = "[Cl][Pd][Cl]"
assigned_label = "inactive"

[[record]]
compound = "CCCCCCCCCCCCCOC(=O)c1ccccc1C(=O)OCCCCCCCCCCCCC"
assigned_label = "inactive"

[[record]]
compound = "CCCC(=O)c1cc(O)c(O)cc1O"
assigned_label = "inactive"

[[record]]
compound = "Nc1ccc(F)cc1F"
assigned_label = "inactive"

[[record]]
compound = "CC(=O)/C=C/C1=C(C)CCCC1(C)C"
assigned_label = "inactive"

[[record]]
compound = "CCCCCCC(C)COC(=O)c1ccccc1C(=O)OCC(C)CCCCCC (centres undefined)"
assigned_label = "inactive"

[[record]]
compound = "c1ccoc1"
assigned_label = "inactive"

[[record]]
compound = "Cl/C=C/Cl"
assigned_label = "inactive"

[[record]]
compound = "CC(=O)Nc1ccc(N=Nc2cc(C)ccc2O)cc1"
assigned_label = "inactive"

[[record]]
compound = "CN1C[C@H](C(=O)N[C@]2(C)O[C@@]3(O)[C@@H]4CCCN4C(=O)[C@H](Cc4ccccc4)N3C2=O)C=C2c3cccc4[nH]cc(c34)C[C@H]21"
assigned_label = "inactive"

[[record]]
compound = "Nc1ccn([C@@H]2O[C@H](CO)[C@@H](O)[C@@H]2O)c(=O)n1"
assigned_label = "inactive"

[[record]]
compound = "CCCCC(CC)COCCCN (centres undefined)"
assigned_label = "inactive"

[[record]]
compound = "O=C(O)c1ccccc1"
assigned_label = "inactive"

[[record]]
compound = "NC(=O)c1cnccn1"
assigned_label = "inactive"

[[record]]
compound = "C=C(C)C(=O)OCCCC"
assigned_label = "inactive"

[[record]]
compound = "COc1ccc(CN(CCN(C)C)c2ccccn2)cc1"
assigned_label = "inactive"

[[record]]
compound = "C=C(C)C1CC=C(C)C(O)C1 (centres undefined)"
assigned_label = "inactive"

[[record]]
compound = "CCN(CC)c1ccc(N=O)c(O)c1"
assigned_label = "inactive"

[[record]]
compound = "Oc1c(Cl)c(Cl)cc(Cl)c1Cl"
assigned_label = "inactive"

[[record]]
compound = "O=C(O)c1ccc(S(=O)(=O)N(Cl)Cl)cc1"
assigned_label = "inactive"

[[record]]
compound = "Nc1ccc(Br)cc1"
assigned_label = "inactive"

[[record]]
compound = "CCCCC(CC)COC(=O)c1ccccc1C(=O)OCC(CC)CCCC (centres undefined)"
assigned_label = "inactive"

[[record]]
compound = "CC(O)CN (centres undefined)"
assigned_label = "active"

[[record]]
compound = "CN(C)CCN(Cc1ccccc1)c1ccccc1"
assigned_label = "inactive"

[[record]]
compound = "CCCCCNCCCCC"
assigned_label = "inactive"

[[record]]
compound = "O=C1[O][Bi][O]c2ccccc21"
assigned_label = "inactive"

[[record]]
compound = "Cc1c(N=C=O)cccc1N=C=O"
assigned_label = "inactive"

[[record]]
compound = "O=Cc1ccccc1Cl"
assigned_label = "inactive"

[[record]]
compound = "COP(=O)(OC)C(O)C(Cl)(Cl)Cl (centres undefined)"
assigned_label = "inactive"

[[record]]
compound = "Nc1ccccc1C(=O)O"
assigned_label = "inactive"

[[record]]
compound = "CN(CCO)CCO"
assigned_label = "inactive"

[[record]]
compound = "Nc1c2ccccc2nc2ccccc12"
assigned_label = "inactive"

[[record]]
compound = "Nc1ccc2ccccc2c1N=Nc1ccc([N+](=O)[O-])cc1"
assigned_label = "inactive"

[[record]]
compound = "CCCCCCCCCCCOC(=O)c1ccccc1C(=O)OCCCCCCCCCCC"
assigned_label = "inactive"

[[record]]
compound = "Nc1ccc(N)c2c1C(=O)c1c(N)ccc(N)c1C2=O"
assigned_label = "active"

